test: RP, Waters ACQUITY UPLC HSS T3, 150 × 2.1 mm, 1.8 µm; A: water + 0.1% formic acid; B: acetonitrile + 0.1% formic acid; gradient (min/%B) 0/5 1/5 16/95 18/95; conditions: stereoisomer not certain
measurementLabel: LC retention time
Record the result as number plus unit.

Examples from the recorded data:
CC(C)C(N)C(=O)NC(Cc1ccccc1)C(=O)O (stereo unspecified)
3.3 min
CC12CCC(=O)C=C1CCC1C2C(O)CC2(C)C1CCC2(O)C(=O)CO (stereo unspecified)
6.56 min
CCC(C)C(N)C(=O)NC(Cc1ccccc1)C(=O)O (stereo unspecified)
3.9 min

Field LC retention time (entry CSCCCCCCCCC(N)C(=O)O (stereo unspecified) ) reads 5.4 min

Field LC retention time (entry COc1cc(CC2COC(c3ccc(O)c(OC)c3)C2CO)ccc1O (stereo unspecified) ) reads 5.6 min

Field LC retention time (entry COn1cc(CN)c2ccccc21 ) reads 3.7 min
